Just for reference, patent US10221163B2 is where these values come from.

Test system: Pseudomonas aeruginosa MB9798 vs MB9799
Condition Info: ratio MITC95 PA_9798/MITC95 PA_9799
Label YES when Efflux ratio < 1; otherwise NO.

Take a look at these entries with their results.
INSERT INTO measurements (compound, target_desc, group) VALUES
  ('NC(=O)[C@@H](N)CNS(=O)(=O)c1ccc(-c2cccc3[nH]c(N)nc23)c(-c2nn[nH]n2)c1S(N)(=O)=O [Example 189]', 'Pseudomonas aeruginosa MB9798 vs MB9799', 'YES'),
  ('Nc1nc2c(-c3ccc(S(=O)(=O)NCCC(N)C(F)F)c(S(N)(=O)=O)c3-c3nnn[nH]3)cccc2s1.O=CO (centres unmarked) [Example 124]', 'Pseudomonas aeruginosa MB9798 vs MB9799', 'NO');

Q: Is 1 strictly greater than the compound's reported Efflux ratio? compound: NC[C@H](CO)NS(=O)(=O)c1ccc(-c2ccnc(N)c2)c(-c2nn[nH]n2)c1S(N)(=O)=O [Example 362]
Result: NO

Q: Is 1 strictly greater than the compound's reported Efflux ratio? compound: Nc1nc2c(-c3ccc(S(=O)(=O)NCC4(O)CCNCC4)c(S(N)(=O)=O)c3-c3nnn[nH]3)cccc2s1 [Example 86]
Result: YES

Q: Is 1 strictly greater than the compound's reported Efflux ratio? compound: NC(=O)[C@H](N)CNS(=O)(=O)c1ccc(-c2cccc3[nH]c(N)nc23)c(-c2nn[nH]n2)c1S(N)(=O)=O [Example 188]
Result: YES

Q: Is 1 strictly greater than the compound's reported Efflux ratio? compound: NCc1csc(Nc2cccc(-c3ccc(S(=O)(=O)N[C@@H]4CCNC4)c(S(N)(=O)=O)c3-c3nn[nH]n3)c2)n1 [Example 290]
Result: NO

Q: Is 1 strictly greater than the compound's reported Efflux ratio? compound: CN([C@H]1CCNC1)S(=O)(=O)c1ccc(-c2cccc3[nH]c(N)nc23)c(-c2nn[nH]n2)c1S(N)(=O)=O [Example 244]
Result: NO

Q: Is 1 strictly greater than the compound's reported Efflux ratio? compound: NC[C@@H](N)CNS(=O)(=O)c1ccc(-c2cnc3cc[nH]c3c2)c(-c2nn[nH]n2)c1S(N)(=O)=O [Example 378]
Result: NO

Q: Is 1 strictly greater than the compound's reported Efflux ratio? compound: NCCNS(=O)(=O)c1ccc(-c2cccc3[nH]c(N)nc23)c(-c2nn[nH]n2)c1S(N)(=O)=O [Example 12]
Result: YES

Q: Is 1 strictly greater than the compound's reported Efflux ratio? compound: NCCNS(=O)(=O)c1ccc(-c2cc(F)cc3[nH]c(N)nc23)c(-c2nnn[nH]2)c1S(N)(=O)=O [Example 180]
Result: YES

Q: Is 1 strictly greater than the compound's reported Efflux ratio? compound: CN([C@H]1CCNC1)S(=O)(=O)c1ccc(-c2cccc3sc(N)nc23)c(-c2nnn[nH]2)c1S(N)(=O)=O [Example 65]
Result: NO
